Source of measurements: PubChem BioAssay (NCI)

- Test system: UO-31 renal
- protocol.notes: NCI-60 one-dose screen, 48 h
- assay.conditions: 10 µM unless noted
About 83,000 compounds went through this panel and 20% of them were active in at least one assay; those are over-represented in the sample as a whole. Activity calls are given as the source filed them. How the source made its calls: active means growth percent below 10; inactive means the rest.
Write down the outcome that applies. Available outcomes: 1 (active), 0 (inactive)

C=C(C)[C@@H]1CC[C@]2(C(=O)O)CC[C@]3(C)[C@H](CC[C@@H]4[C@@]5(C)CCC(N)C(C)(C)[C@@H]5CC[C@]43C)[C@@H]12 (stereo partly specified); 0
C=C(CNCCc1ccc(O)cc1)[C@@H]1CC[C@]2(CO)CC[C@]3(C)[C@H](CC[C@@H]4[C@@]5(C)CCC(NCCc6ccc(O)cc6)C(C)(C)[C@@H]5CC[C@]43C)[C@@H]12 (stereo partly specified); 1
O=C(Nc1ncc(Cc2cccc(C(F)(F)F)c2)s1)c1ccc2c(c1)OCCO2; 0
CN1CCCc2cc(/C=C3\SC(=S)N(C(Cc4ccc(O)cc4)C(=O)O)C3=O)ccc21 (stereo unspecified); 0
COc1cc(/C=N/NC(=O)CCN2c3ccccc3Sc3ccccc32)cc(OC)c1OC; 0

Field: next compound
IN: How was FC(F)(F)Sc1ccc(/C=C/c2cc(/C=C/c3ccc(SC(F)(F)F)cc3)n(-c3ccccc3)n2)cc1 classified in this test?
OUT: 0

###

Provide the reported growth of each item.
- Test system: HOP-92 NSCLC
- protocol.notes: NCI-60 one-dose screen, 48 h (100 = growth as untreated, 0 = no growth, -100 = all killed)
- assay.conditions: 10 µM unless noted
Compounds without any hit were thinned out: in the full panel of roughly 83,000, 20% have a hit. The source made the active and inactive calls. How the source made its calls: active means growth percent below 10; inactive means the rest.

Below are some compounds; for each one, tell me its growth.
1. Clc1ccc2c(NCCN3CCN(c4ccnc(N5CCCC5)n4)CC3)ccnc2c1
2. O=C(NNc1ccccc1)c1ncc[nH]1
3. COc1cc2ncnc(Nc3ccc(F)c(Cl)c3)c2cc1OCC(=O)N1CCCCC1
4. COc1cc(-c2nn(-c3cccc(NC(=O)CCN4CCN(C)CC4)c3)cc2-c2ccncc2)ccc1Cl
5. COc1ccc(-c2[nH]c3ccccc3c2-c2ccc(OC)cc2)cc1

OUT:
["23.3% (inactive)", "95.1% (inactive)", "81.6% (inactive)", "22.7% (inactive)", "42.6% (inactive)"]

# per-item lookup of growth; items listed below
1. C=C1C(=O)O[C@@H]2[C@H]3[C@H](COC(C)=O)[C@@H](OC(C)=O)C[C@H]3C(=C)[C@@H](O)C[C@@H]12
2. Nc1ccc(/C=N/Nc2ccnc3c(N)cccc23)c2cccnc12
3. COc1cc(/C=C2\C(=O)N(CCCCn3c4ccccc4c(=O)c4ccccc43)c3ccccc32)cc(OC)c1O
4. NC(=O)c1c(NC(=O)/C=C/c2cccs2)sc2c1CCC(=O)C2
5. Nc1nc(N)c2c(n1)NC(c1cccc(Nc3ccnc4cc(C(F)(F)F)ccc34)c1)CC(c1ccc(F)cc1)=N2 (stereo unspecified)
6. O=C(O)c1ccccc1Cc1ccc(F)c2ccccc12

OUT:
1: 99.8% (inactive); 2: -17.9% (active); 3: 65.7% (inactive); 4: 42.4% (inactive); 5: 31.6% (inactive); 6: 74.6% (inactive)

###

Provide the recorded growth for the entries that follow.
- System: LOX IMVI melanoma
- protocol.notes: NCI-60 one-dose screen, 48 h (100 = growth as untreated, 0 = no growth, -100 = all killed)
- assay.conditions: 10 µM unless noted
The panel holds about 83,000 compounds, 20% with a hit somewhere; the sample as a whole holds those more often. Calls of active or inactive are those of the source. Rule for the calls: active = growth percent below 10; inactive = the rest.

Illustrative cases are given below, each with its answer.
COc1ccc(-c2ccccc2)cc1-c1c(Nc2cc(Cl)cc(Cl)c2O)c(=O)c1=O; 7.28% (active)
CC(C)(C)c1cc(C(C)(C)c2ccccc2)cc(Cc2cc(C(C)(C)c3ccccc3)cc(C(C)(C)C)c2O)c1O; 89.5% (inactive)
CCCCCO/N=C\c1c2c(O)c3c(O)c(C)c4c(c3c1O)C(=O)C(C)(O/C=C\C(OC)C(C)C(OC(C)=O)C(C)C(O)C(C)C(O)C(C)/C=C\C=C(\C)C(=O)N2)O4 (stereo not given); 23.2% (inactive)

Please go through the list and note growth for each compound.
1. CC(=O)c1c(C)nc(SCC(=O)Nc2ccc(Cl)cc2)n1-c1ccc(Cl)cc1
2. COc1nc2ccc(C)cc2cc1/C=[N+](\[O-])c1ccccc1
3. Cc1cc(N2CCCCC2)nc(NCc2cc(Nc3ccnc4cc(Cl)ccc34)ccc2F)n1
4. COc1ccc(/C=C2/C(=O)N=C3N2NC(c2ccccc2)=CN3c2ccccc2)cc1
5. Nc1nc(Nc2ccc(F)cc2)nn1C(=O)c1cc(Cl)ccc1Cl
6. COc1ccc2c(c1)CCNC21C(=O)Nc2c(Br)cc(Br)cc21 (stereo not given)
7. Cc1ccc(/C=C/c2c(C(=O)/C=C/c3ccccc3)c(C)nc3ccccc23)cc1

OUT:
["93.1% (inactive)", "77.8% (inactive)", "-79.2% (active)", "87.8% (inactive)", "48.4% (inactive)", "102% (inactive)", "-79.4% (active)"]

Record growth per entry; entries follow.
1. CN1CCN(C(=O)OCc2nc3c(N4CCOCC4)nc(Cl)nc3n2C)CC1
2. CCOC(=O)C1=C(C)N=C2SC=C(c3ccc(F)cc3)N2[C@H]1c1cn(-c2ccccc2)nc1-c1ccc(Cl)cc1
3. O=C(Nc1ccccc1C(=O)N/N=C(\c1ccccc1)c1ccccn1)c1ccccc1
4. O=C1C(=C(O)c2ccccc2)C(=O)c2ccccc21
5. Cc1c(CC(=O)OCCO)cc(-c2ccc(Cl)cc2)n1-c1ccccc1
6. Nc1[nH]nc(Nc2ccccc2)c1-c1nc2ccccc2s1
7. COc1ccc(Nc2nn3c(SCC(=O)c4ccc(C)cc4)nnc3s2)cc1
8. NC(N)=NC(N)=NCCCc1ccco1

OUT:
1. -96.2% (active)
2. 95.7% (inactive)
3. 14.5% (inactive)
4. 99% (inactive)
5. 94% (inactive)
6. -79.1% (active)
7. 95.9% (inactive)
8. 97.1% (inactive)

Look up growth for the entries below, preserving their order.
1. O=C(CCCCCCCCC(=O)N/N=C\c1ccccc1O)N/N=C\c1ccccc1O
2. O=C(/C=C/c1ccc(F)cc1)Nc1ncc(Cc2ccc(F)cc2)s1
3. CCN(CC)CC#CCOC(=O)[C@]1(C)CCC[C@]2(C)c3ccc(C(C)C)cc3CC[C@@H]12
4. O=C(Nc1ncc(Cc2cccc(C(F)(F)F)c2)s1)c1ccc(-n2cnnn2)cc1
5. CCN1C(=S)N(CC)C2C1NC(=S)N2/N=C/C=C/c1ccccc1 (stereo not given)

OUT:
1: 10.8% (inactive); 2: 9.96% (active); 3: 92.6% (inactive); 4: 46.6% (inactive); 5: 37.6% (inactive)

I'm hoping you can list growth for every compound here, please.
1. CC(=O)c1c(C)nc2ccccc2c1/C=C/c1cccc(C)c1
2. COC(=O)c1[nH]nc(OC)c1C1(C(C#N)c2nc3ccccc3s2)CCCc2ccccc21 (stereo not given)
3. COc1ccc(Oc2nc(Nc3ccc(N4CCOCC4)cc3)ncc2NC(=O)c2cc(OC)cc(OC)c2)cc1
4. Cc1ccc(-c2nc3nc(-c4ccccc4)nc(N4CCCNCC4)c3o2)cc1
5. COc1ccc(C/C(C)=C(/c2ccc(OCCN3CCCCCC3)cc2)c2ccc(OC(=O)c3ccccc3)cc2)cc1
6. COc1ccc(C(c2cc(OC)c(OC)c(OC)c2)n2ccnc2)cc1O (stereo not given)
7. CN1CCN(c2ccc(Nc3ncc(C(N)=O)c(NCCCNC(=O)C4CCC4)n3)cc2)CC1

OUT:
1. 42% (inactive)
2. 95% (inactive)
3. 84.7% (inactive)
4. -89.8% (active)
5. 90.7% (inactive)
6. 25.7% (inactive)
7. 64.8% (inactive)

###

- Tested on: OVCAR-5 ovarian
- protocol.notes: NCI-60 one-dose screen, 48 h (100 = growth as untreated, 0 = no growth, -100 = all killed)
- assay.conditions: 10 µM unless noted
This is part of a sample that, as a whole, favours compounds with a hit. Of some 83,000 tested, about 20% had one in any assay.
We label by threshold. Values of growth strictly beneath 80% are met. Values of 80% and up are not met.

O=C1C=C(Nc2ccccc2)c2ncccc2C1=O; met
BrC1=C(Br)C(Br)(Br)C(Br)=C1Br; not met
S=c1nc(CS)[nH]c2ccccc12; not met
COc1cc(Nc2nc3ccccc3cc2C(=O)Nc2ccc(F)c(F)c2)cc(OC)c1OC; met
CCCc1cc(C(N)=S)ccn1; not met

Shifting focus to the compound that follows.
IN: Take the compound COc1ccc(/C(C)=C(\c2ccc(OCCN3CCOCC3)cc2)c2ccc(OC(=O)C3CCCCC3)cc2)cc1 and say whether its growth is less than 80%.
OUT: not met
